- System: HOP-62 NSCLC
- ASSAY_PROCEDURE: NCI-60 one-dose screen, 48 h (100 = growth as untreated, 0 = no growth, -100 = all killed)
- EXPERIMENTAL_CONDITIONS: 10 µM unless noted
Compounds without any hit were thinned out: in the full panel of roughly 83,000, 20% have a hit.
# reported growth; entries follow
The response must be a number in % with no trailing unit.

As a guide, the following entries are already answered.
[
  {
    "COMPOUND": "O=C(/C=C/c1cc(Cl)ccc1Cl)Nc1ncc(Cc2ccc(Cl)cc2)s1",
    "OUTPUT_UNIT": "%",
    "REPORTED": 1.25
  },
  {
    "COMPOUND": "CC(C)C(/C=C/c1[nH]ncc1-c1cc(Cl)ccc1O)N1CCOCC1 (centres undefined)",
    "OUTPUT_UNIT": "%",
    "REPORTED": 92.3
  },
  {
    "COMPOUND": "COc1ccc2c(c1)C=CC1(O2)Oc2ccc(OC)cc2C=C1C (centres undefined)",
    "OUTPUT_UNIT": "%",
    "REPORTED": 51
  }
]

Q) // map "COc1ccc2[nH]cc(-c3nc(N)nnc3-c3cn(C)c4ccc(Br)cc34)c2c1" to recorded growth (system: HOP-62 NSCLC)
A) 38.9

Q) And NS(=O)(=O)c1ccc(Nc2nc(Nc3ccccc3)nc(N3N=C(c4ccc(Cl)cc4)CC3c3ccc(Cl)cc3)n2)cc1 (centres undefined) ?
A) 75.8

Q) And "CNC(=O)c1cc(-n2ccc3cc(NC(=O)Nc4ccc(N5CCN(C)CC5)c(C(F)(F)F)c4)ccc32)ccn1" ?
A) 75.6

Q) And "COc1ccccc1N1CCN(C2=C(Cl)C(=O)c3ncccc3C2=O)CC1" ?
A) 93.4

Q) And "COC(=O)c1cccc(NC2=C(Cl)C(=O)C(C)=C(C)C2=O)c1" ?
A) 94.8

Q) And "CNC(=O)c1cc(-c2ccc(NC(=S)Nc3cccc(C(F)(F)F)c3)cc2)nc2cccnc12" ?
A) 102

* * *

- Tested on: SK-MEL-2 melanoma
- ASSAY_PROCEDURE: NCI-60 one-dose screen, 48 h
- EXPERIMENTAL_CONDITIONS: 10 µM unless noted
The panel holds about 83,000 compounds, 20% with a hit somewhere; the sample as a whole holds those more often. Activity calls are given as the source filed them. How the source made its calls: active means growth percent below 10; inactive means the rest.
One label from this list, please: true (1) (active), false (0) (inactive)

Illustrative cases are given below, each with its answer.
[
  {
    "CPD_SMILES": "O=C1C(N2CCN(c3ccccc3)CC2)=C(Cl)C(=O)c2ncccc21",
    "CATEGORY": "false (0)"
  },
  {
    "CPD_SMILES": "CSc1ccc(C(=NNS(=O)(=O)c2ccc(C)cc2)c2ccc(Cl)cc2)cc1",
    "CATEGORY": "false (0)"
  },
  {
    "CPD_SMILES": "O=C(CCCCCCNC(=O)C(O)(O)C(F)(F)F)Nc1ccc(Br)cc1",
    "CATEGORY": "true (1)"
  },
  {
    "CPD_SMILES": "CC(C)NC(=O)c1cc(-c2ccc(NC(=O)Nc3ccc(F)cc3)cc2)nc2cccnc12",
    "CATEGORY": "false (0)"
  }
]

Q) // param item: "O=S(=O)(NCCCNc1nccc(-c2[nH]c(-c3ccccc3)nc2-c2ccc(F)c(O)c2)n1)c1ccccc1" ; yields the recorded call
A) false (0)

Q) And "C#C[C@]1(O)CC[C@H]2[C@@H]3CC=C4c5sc(N(C)c6ccccc6)nc5CC[C@]4(C)[C@H]3CC[C@@]21C" ?
A) false (0)

Q) And "CN1CCN(Cc2ccc(NC(=O)c3cncc(C#Cc4cnc(N)nc4)c3)cc2C(F)(F)F)CC1" ?
A) true (1)

Q) And "CCOC(=O)c1ccc(NC2=C(Cl)C(=O)c3nc(C)ccc3C2=O)cc1" ?
A) false (0)

Q) And "CCOc1cccc(/C(N)=N/C(N)=N/c2nc3ccccc3s2)c1" ?
A) false (0)
